Entry source: the supplement of paper PMC10307832

# System: NCI-H460
# test.name: relative viability (nuclei count vs DMSO), 5 days (fraction); higher = more cells survive
# assay.setup: first compound 0.08 µM

molecule: Cc1cnc(-c2cnc(NCCNc3ccc(C#N)cn3)nc2-c2ccc(Cl)cc2Cl)[nH]1 + COc1cccc2cc(-c3nc([C@H]4CC[C@H](C(=O)O)CC4)n4ncnc(N)c34)[nH]c12 [OSI-027] (partner 0.5 µM)
tgt: NCI-H460
relative viability: 0.749
//
molecule: Cc1cnc(-c2cnc(NCCNc3ccc(C#N)cn3)nc2-c2ccc(Cl)cc2Cl)[nH]1 + CS(=O)(=O)CCNCc1ccc(-c2ccc3ncnc(Nc4ccc(OCc5cccc(F)c5)c(Cl)c4)c3c2)o1 [Lapatinib] (partner 2 µM)
tgt: NCI-H460
relative viability: 0.943
//
molecule: O=c1[nH]c2ccccc2n1C1CCN(CCCC(c2ccc(F)cc2)c2ccc(F)cc2)CC1 [Pimozide] + C[C@]1(O)C[C@@H](c2nc(-c3ccc4ccc(-c5ccccc5)nc4c3)c3c(N)nccn32)C1 [Linsitinib] (partner 1 µM)
tgt: NCI-H460
relative viability: 0.964
//
molecule: Cc1cnc(-c2cnc(NCCNc3ccc(C#N)cn3)nc2-c2ccc(Cl)cc2Cl)[nH]1 + CC(C)C[C@H](NC(=O)[C@H](Cc1ccccc1)NC(=O)c1cnccn1)B(O)O [Bortezomib] (partner 0.002 µM)
tgt: NCI-H460
relative viability: 1.18

* * *

# System: ABC-1
# test.name: relative viability (nuclei count vs DMSO), 5 days (fraction); higher = more cells survive
# assay.setup: first compound 0.04 µM
Mark Yes only when relative viability stays strictly below 0.7. Values equal to the cut-off are No.

molecule: Cc1sc2c(c1C)C(c1ccc(Cl)cc1)=N[C@@H](CC(=O)OC(C)(C)C)c1nnc(C)n1-2 [JQ1] + CCNC(=O)c1noc(-c2cc(C(C)C)c(O)cc2O)c1-c1ccc(CN2CCOCC2)cc1 [Luminespib] (partner 0.01 µM)
qualitative.label: Yes
--
molecule: Cc1sc2c(c1C)C(c1ccc(Cl)cc1)=N[C@@H](CC(=O)OC(C)(C)C)c1nnc(C)n1-2 [JQ1] + CS(=O)(=O)CCNCc1ccc(-c2ccc3ncnc(Nc4ccc(OCc5cccc(F)c5)c(Cl)c4)c3c2)o1 [Lapatinib] (partner 2 µM)
qualitative.label: No
--
molecule: Cc1sc2c(c1C)C(c1ccc(Cl)cc1)=N[C@@H](CC(=O)OC(C)(C)C)c1nnc(C)n1-2 [JQ1] + Cc1nc(Nc2ncc(C(=O)Nc3c(C)cccc3Cl)s2)cc(N2CCN(CCO)CC2)n1 [Dasatinib] (partner 0.075 µM)
qualitative.label: Yes
--
molecule: Cc1sc2c(c1C)C(c1ccc(Cl)cc1)=N[C@@H](CC(=O)OC(C)(C)C)c1nnc(C)n1-2 [JQ1] + COc1cc2c(Oc3ccc(NC(=O)C4(C(=O)Nc5ccc(F)cc5)CC4)cc3F)ccnc2cc1OCCCN1CCOCC1 [Foretinib] (partner 0.25 µM)
qualitative.label: No
--
molecule: Cc1sc2c(c1C)C(c1ccc(Cl)cc1)=N[C@@H](CC(=O)OC(C)(C)C)c1nnc(C)n1-2 [JQ1] + C[C@@H](Oc1cc(-c2cnn(C3CCNCC3)c2)cnc1N)c1c(Cl)ccc(F)c1Cl [Crizotinib] (partner 1 µM)
qualitative.label: No

* * *

# Test system: NCI-H1395
# test.name: relative viability (nuclei count vs DMSO), 5 days (fraction); higher = more cells survive
# assay.setup: first compound 158.11 µM
# note: boundary value 0.7 maps to Not met; relative viability below it maps to Met

compound: O=C(O)CCCCC(CCSCc1ccccc1)SCc1ccccc1 (stereo not given) [CPI-613] + Cc1nc(Nc2ncc(C(=O)Nc3c(C)cccc3Cl)s2)cc(N2CCN(CCO)CC2)n1 [Dasatinib] (partner 0.075 µM)
tgt: NCI-H1395
qualitative.label: Met
//
compound: O=C(O)CCCCC(CCSCc1ccccc1)SCc1ccccc1 (stereo not given) [CPI-613] + Nc1nc2[nH]cc(CCc3ccc(C(=O)N[C@@H](CCC(=O)O)C(=O)O)cc3)c2c(=O)[nH]1 [Pemetrexed] (partner 0.2 µM)
tgt: NCI-H1395
qualitative.label: Not met
//
compound: O=C(O)CCCCC(CCSCc1ccccc1)SCc1ccccc1 (stereo not given) [CPI-613] + CC(=O)Nc1cccc(-n2c(=O)n(C3CC3)c(=O)c3c(Nc4ccc(I)cc4F)n(C)c(=O)c(C)c32)c1 [Trametinib] (partner 0.02 µM)
tgt: NCI-H1395
qualitative.label: Not met
//
compound: O=C(O)CCCCC(CCSCc1ccccc1)SCc1ccccc1 (stereo not given) [CPI-613] + O=C(CCCCCCC(=O)Nc1ccccc1)NO [Vorinostat] (partner 1 µM)
tgt: NCI-H1395
qualitative.label: Met
